B1: Osa-1-4 twister ribozyme (parent)
chain: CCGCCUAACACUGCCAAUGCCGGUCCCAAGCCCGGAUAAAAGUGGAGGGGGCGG

- Variants of: B1
- TEST SUMMARY: self-cleavage, relative activity (ratio to wild type); higher = more cleavage; co-transcriptional
# binarize self-cleavage: threshold 0.1 inclusive, high side fulfilled, low side not fulfilled

> print(dat)
    mutation.descriptor   answer.label
 1            A29C C15G  not fulfilled
 2            A38C G30A  not fulfilled
 3            G45A U12C  not fulfilled
 4            A16G G23U      fulfilled
 5            C21G G54C  not fulfilled
 6             A7U C25U      fulfilled
 7            A28U C11A      fulfilled
 8            G34C G49A  not fulfilled
 9            A41C C32U  not fulfilled
10            G53U U18A      fulfilled
11            C27U G35C  not fulfilled
12            A28C G30C  not fulfilled
13             A8G C26G      fulfilled
14             A7U G48C  not fulfilled
15            C21A C25U      fulfilled
16            C32G U24G  not fulfilled
17            A29C C20G  not fulfilled
18            A36G G44A      fulfilled
19            C15G C26G      fulfilled
20            A40U G30C  not fulfilled
21            A38C A46G  not fulfilled
22            C25U G13U  not fulfilled
23            C32U G30C  not fulfilled
24            G51U G53C  not fulfilled
25            C11U G53U      fulfilled
26            G51C G53C  not fulfilled
27            A40C G53A  not fulfilled
28            A39G G35A      fulfilled
29            C33G G47U  not fulfilled
30             A8U G53A      fulfilled
31            C15A U24A  not fulfilled
32            C11U G13U  not fulfilled
33            C15G C21A      fulfilled
34            A39C G54A      fulfilled
35            C25G U18A  not fulfilled
36             C21G C9A  not fulfilled
37            C14G C31G      fulfilled
38            G19C G42C  not fulfilled
39            A16G C11G      fulfilled
40            A17U G13U  not fulfilled
41                 A36U      fulfilled
42            A41U G42A      fulfilled
43            C14A G49C  not fulfilled
44            C25A G45A  not fulfilled
45             A8U C27A  not fulfilled
46            C52A G53A      fulfilled
47            C52U G34A      fulfilled
48            C32U G23A      fulfilled
49            C14A U43C  not fulfilled
50            G48U G51A      fulfilled
51            A10U G45C  not fulfilled
52            A29C G23U  not fulfilled
53            A10C C52U      fulfilled
54            G19A G30C  not fulfilled
55            A46G C27A  not fulfilled
56            C20U U18A      fulfilled
57            A46U G50A  not fulfilled
58            G53A U24G  not fulfilled
59            A40U G42C      fulfilled
60            G44A G48C  not fulfilled
61             A39U C9G      fulfilled
62             A36C A7C  not fulfilled
63             A7G C20A      fulfilled
64            C25U U43A      fulfilled
65            A16C C32A  not fulfilled
66            A38C A41C      fulfilled
67             A7C G53C  not fulfilled
68            A36U G53A      fulfilled
69            C25G G44U  not fulfilled
70             A7G C14A  not fulfilled
71             A8U G44C  not fulfilled
72            A16G A36C      fulfilled
73            A46U C32G  not fulfilled
74            A28U C14U      fulfilled
75             A8G G50A      fulfilled
76            A17G C21U      fulfilled
77            A36C G34C      fulfilled
78            A28U A38U      fulfilled
79            A38C G44C      fulfilled
80             A8C C21A  not fulfilled
81            A40C G23U  not fulfilled
82            C32G U43G      fulfilled
83            C33G G19A  not fulfilled
84            C14A C52G      fulfilled
85            A29C G53A  not fulfilled
86            A16C C33U      fulfilled
87            C21U U18A      fulfilled
88            A29G A46G  not fulfilled
89            A16U G23A      fulfilled
90            C27U G47A      fulfilled
